tested on: Hela cell line; test: Cytotoxicity MTS assay, Hela cell line; format: cell-based; conditions: Hela cell line, MTS, 25μM, first assay;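 further: blank control wells received 0.025% DMSO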
Assignment: determine reported OD490 value, Mean for the given molecules.
Numbers only.

Past entries and their recorded results:
[
  {
    "Molecule": "CCOC(=O)c1[nH]c(C2NC(=O)NC(C)=C2C(=O)Nc2ccc(Cl)cc2)c(C(=O)OCC)c1C (centres unmarked)",
    "OD490 value, Mean": 2.6458
  },
  {
    "Molecule": "CCOC(=O)c1c(C2NC(=O)NC(C)=C2C(=O)Nc2ccccc2C)[nH]c(C(=O)OC)c1C (centres unmarked) [D2]",
    "OD490 value, Mean": 2.6414
  },
  {
    "Molecule": "CCOc1ccccc1C1NC(=S)NC(C)=C1C(=O)Nc1ccc(Cl)cc1 (centres unmarked)",
    "OD490 value, Mean": 1.8211
  },
  {
    "Molecule": "CCOC(=O)c1c(C2NC(=O)NC(C)=C2C(=O)Nc2ccccc2OC)[nH]c(C(=O)OC)c1C (centres unmarked) [D1]",
    "OD490 value, Mean": 2.1398
  },
  {
    "Molecule": "CCOC(=O)c1c(C2NC(=O)NC(C)=C2C(=O)Nc2ccccc2)[nH]c(C(=O)OC)c1C (centres unmarked)",
    "OD490 value, Mean": 2.2246
  },
  {
    "Molecule": "CCOC(=O)c1[nH]c(C2NC(=S)NC(C)=C2C(=O)OC)c(C(=O)OCC)c1C (centres unmarked)",
    "OD490 value, Mean": 2.2305
  },
  {
    "Molecule": "CCOC(=O)c1[nH]c(C2NC(=O)NC(C)=C2C(=O)Nc2ccccc2C)c(C(=O)OC)c1C (centres unmarked)",
    "OD490 value, Mean": 2.5844
  }
]

Okay, now this molecule:
Prompt: Reported OD490 value, Mean for CCOC(=O)c1[nH]c(C2NC(=O)NC(C)=C2C(=O)Nc2ccccc2OC)c(C(=O)OC)c1C (centres unmarked) : what is it?
Response: 2.3973
